test_method_notes: Cytotoxicity against human HeLa cells assessed as minimum concentration required to cause microscopically detectable alteration after 2 days
Format: cell-based
reported_conditions: read-out: Activity
quantity_kind: MCC at 48 h (µg/mL)
Numbers only, in µg/mL.

>>> numeric_value("COc1ccccc1/C=N/n1c(-c2ccccc2)nc2ccccc2c1=O")
20
>>> numeric_value("COc1ccc(/C=N/n2c(-c3ccccc3)nc3ccccc3c2=O)cc1O")
20

# ---- query molecule ----
Prompt: Given C/C(=N\n1c(-c2ccccc2)nc2ccccc2c1=O)c1ccc(Cl)cc1 , state its recorded MCC at 48 h.
Response: 100

###

Field: EC50. Provide a value for each of the compounds that follow.
System: Punta Toro virus
test_method_notes: Antiviral activity against Punta Toro virus infected in african green monkey Vero cells assessed as protection against virus-induced cytopathogenicity after 2 days
Assay type: functional, organism-based
reported_conditions: 48 h

The following compounds have reported results that may help.
>>> result("Nc1ncnc2c1ncn2C[C@H](O)CO [(S)-DHPA]")
"> 250 µg/mL"
>>> result("O=c1c2ccccc2nc(-c2ccccc2)n1/N=C/c1cccc([N+](=O)[O-])c1")
"> 4 µg/mL"
>>> result("C/C(=N\\n1c(-c2ccccc2)nc2ccccc2c1=O)c1ccccc1")
"> 20 µg/mL"
>>> result("O=c1c2ccccc2nc(-c2ccccc2)n1/N=C/c1ccccc1O")
"3 µg/mL"
>>> result("COc1ccccc1/C=N/n1c(-c2ccccc2)nc2ccccc2c1=O")
"> 20 µg/mL"

Okay, here is my list. What is EC50 for each of these?
1. COc1ccc(/C=N/n2c(-c3ccccc3)nc3ccccc3c2=O)cc1
2. O=c1c2ccccc2nc(-c2ccccc2)n1/N=C/c1ccc(Cl)cc1
3. C/C(=N\n1c(-c2ccccc2)nc2ccccc2c1=O)c1ccc(O)cc1
4. COc1ccc(/C=N/n2c(-c3ccccc3)nc3ccccc3c2=O)cc1O
5. O=c1c2ccccc2nc(-c2ccccc2)n1/N=C/c1ccc(O)cc1
6. O=c1c2ccccc2nc(-c2ccccc2)n1/N=C/c1ccccc1

Response:
1: > 20 µg/mL; 2: > 4 µg/mL; 3: > 100 µg/mL; 4: > 20 µg/mL; 5: > 20 µg/mL; 6: > 4 µg/mL

###

Tested on: Respiratory syncytial virus
test_method_notes: Antiviral activity against Respiratory syncytial virus infected in human HeLa cells assessed as protection against virus-induced cytopathogenicity after 2 days
Format: functional, organism-based
reported_conditions: 48 h
Provide the reported EC50 of each item.

>>> result("O=c1c2ccccc2nc(-c2ccccc2)n1/N=C/c1ccc(O)cc1")
"> 20 µg/mL"
>>> result("NC(=O)c1ncn([C@@H]2O[C@H](CO)[C@@H](O)[C@H]2O)n1")
"22 µg/mL"
>>> result("O=c1c2ccccc2nc(-c2ccccc2)n1/N=C/c1ccccc1")
"> 4 µg/mL"
>>> result("COc1ccc(/C=N/n2c(-c3ccccc3)nc3ccccc3c2=O)cc1O")
"> 4 µg/mL"

Record EC50 per entry; entries follow.
1. O=c1c2ccccc2nc(-c2ccccc2)n1/N=C/c1ccccc1O
2. O=c1c2ccccc2nc(-c2ccccc2)n1/N=C/c1cccc([N+](=O)[O-])c1
3. Nc1ncnc2c1ncn2C[C@H](O)CO [(S)-DHPA]
4. COc1ccc(/C=N/n2c(-c3ccccc3)nc3ccccc3c2=O)cc1
5. C/C(=N\n1c(-c2ccccc2)nc2ccccc2c1=O)c1ccccc1
6. O=c1c2ccccc2nc(-c2ccccc2)n1/N=C/c1ccc(Cl)cc1
7. COc1ccccc1/C=N/n1c(-c2ccccc2)nc2ccccc2c1=O

Response:
["> 0.8 µg/mL", "> 4 µg/mL", "> 250 µg/mL", "> 4 µg/mL", "> 100 µg/mL", "> 4 µg/mL", "> 4 µg/mL"]

Prompt: I have this compound here, C/C(=N\n1c(-c2ccccc2)nc2ccccc2c1=O)c1ccc(O)cc1 , and I need its recorded EC50.
Response: > 100 µg/mL
